The origin of these recorded values is patent US20050227994A1.

- target.or.test.system: MMP-13 (Homo sapiens, UniProt P45452)
- Construct: catalytic domain (^104Tyr˜^267Gly) was amplified with RT-PCR; His-tag; enterokinase digestion-site; made in house
- experimental.details: Assay for inhibitory activities on MMP-13
- Assay type: biochemical
- measurement.setup: catalytic domain, substrate MOCAc-Pro-Leu-Gly-Leu-A2Pr(DNP)-Ala-Arg-NH2; read-out: MMP-13 (IC50μM)
Give IC50 for every item shown.
Kindly answer with a numeric value in µM, unit omitted.

Input: Could you tell me which IC50 is on file for CCSc1ccc(-c2ccc(S(=O)(=O)NC(C(=O)O)C(C)CC)cc2)cc1 (stereo not shown) ?
Output: 0.0067

Input: # get_value(readout='IC50', item= CSc1ccc(-c2ccc(S(=O)(=O)N[C@H](CCC(=O)O)C(=O)O)cc2)cc1 )
Output: 0.0236

Input: Give the measured IC50 of O=C(O)[C@H](Cc1ccccc1)NS(=O)(=O)c1ccc(C#Cc2ccc3c(c2)OCO3)cc1 .
Output: 0.0366

Input: So what's the measured IC50 for this one? O=C(O)[C@@H](Cc1ccccc1)NS(=O)(=O)c1ccc(-c2ccc(-n3cccc3)cc2)s1
Output: 0.0104

Input: Return reported IC50; argument: O=C(O)[C@@H](Cc1ccccc1)NS(=O)(=O)c1ccc(-c2nnn(-c3ccc(Br)cc3)n2)cc1
Output: 0.036

Input: Request the reported IC50 associated with CSc1ccc(-c2ccc(S(=O)(=O)N[C@H](CC(=O)O)C(=O)O)cc2)cc1
Output: 0.0132

Input: Which IC50 is reported for this compound? C=Cc1ccc(-c2ccc(S(=O)(=O)N[C@@H](C(=O)O)C(C)C)s2)cc1
Output: 0.0101

Input: What value of measured IC50 is listed for CSCC[C@H](NS(=O)(=O)c1ccc(-c2ccc(SC)cc2)cc1)C(=O)O ?
Output: 0.0105

Input: # query: IC50 of entry CSc1ccc(-c2nnn(-c3ccc(S(=O)(=O)N[C@H](Cc4ccccc4)C(=O)O)cc3)n2)cc1
Output: 0.0485

Input: Need IC50, item CC(C)C(NS(=O)(=O)c1ccc(-c2ccccc2)cc1)C(=O)O (stereo not shown)
Output: 0.4

Input: Record request: IC50 value, item CSc1ccc(-c2ccc(S(=O)(=O)NC(Cc3ccccc3)C(=O)O)s2)cc1 (stereo not shown)
Output: 0.0831

Input: // IC50 lookup, key: CCCCc1ccc(-n2nnc(-c3ccc(S(=O)(=O)N[C@H](Cc4ccccc4)C(=O)O)cc3)n2)cc1
Output: 0.0179

Input: State the recorded IC50 for this entry: C#Cc1ccc(C#Cc2ccc(S(=O)(=O)N[C@H](Cc3c[nH]c4ccccc34)C(=O)O)cc2)cc1
Output: 0.015

Input: Request the reported IC50 associated with O=C(O)[C@@H](Cc1ccccc1)NS(=O)(=O)c1ccc(-c2ncc(-c3ccc(Br)cc3)s2)cc1
Output: 0.0029

Input: Field request: IC50 | item: O=C(O)C[C@@H](NS(=O)(=O)c1ccc(-c2ncc(-c3ccc4c(c3)OCO4)s2)cc1)C(=O)O
Output: 0.0183

Input: Requested field: IC50. Item: O=C(O)[C@@H](Cc1ccccc1)NS(=O)(=O)c1ccc(-c2ncc(-c3ccc(Cl)cc3)o2)cc1
Output: 0.0443

Input: # IC50 lookup, item O=C(O)[C@H](Cc1c[nH]c2ccccc12)NS(=O)(=O)c1ccc(C#Cc2ccc3ccccc3c2)cc1
Output: 0.893

Input: Entry CSc1ccc(-c2ccc(-c3ccc(S(=O)(=O)N[C@@H](C(=O)O)C(C)C)cc3)s2)cc1 : reported IC50 = ?
Output: 0.00526

Input: Name the reported IC50 value associated with the compound O=C(O)C[C@@H](NS(=O)(=O)c1ccc(-c2ncc(-c3ccc(Cl)c(Cl)c3)s2)cc1)C(=O)O
Output: 0.0154

Input: What does the record list as IC50 for O=C(O)[C@H](NS(=O)(=O)c1ccc(-c2ncc(-c3ccc(Br)cc3)s2)cc1)c1ccccc1 ?
Output: 0.0111

Input: Given the entry COc1ccc(-c2ccc(S(=O)(=O)NC(C(=O)O)C(C)C)s2)cc1 (stereo not shown) , report its measured IC50.
Output: 0.53

Input: State the recorded IC50 for this entry: CSc1ccc(-c2nc(-c3ccc(S(=O)(=O)N[C@H](Cc4ccccc4)C(=O)O)cc3)no2)cc1
Output: 0.0174

Input: Entry under review: CSCC[C@@H](NS(=O)(=O)c1ccc(-c2ccc(SC)cc2)cc1)C(=O)O . Reported IC50?
Output: 0.0197

Input: Suppose we examine the compound CC(C)C[C@@H](NS(=O)(=O)c1ccc(C#Cc2ccc3[nH]c(=O)sc3c2)cc1)C(=O)O ; what IC50 value has been reported?
Output: 1.09

Input: Item CSCC[C@@H](NS(=O)(=O)c1ccc(-c2ncc(-c3ccc(Br)cc3)s2)cc1)C(=O)O has what recorded IC50?
Output: 0.0038

Input: Could you tell me which IC50 is on file for O=C(O)[C@H](CO)NS(=O)(=O)c1ccc(C#Cc2ccc3c(c2)OCO3)cc1 ?
Output: 0.147

Input: Recorded IC50 for O=C(O)[C@@H](Cc1ccccc1)NS(=O)(=O)c1ccc(-c2nc(-c3ccc4ccccc4c3)no2)cc1 , please?
Output: 1.01

Input: Entry under review: CSc1ccc(-c2ccc(S(=O)(=O)N3CCNC(=O)C3C)cc2)cc1 (stereo not shown) . Reported IC50?
Output: 0.883

Input: Endpoint output: IC50 of CS(=O)(=O)OCCc1ccc(-n2nnc(-c3ccc(S(=O)(=O)N[C@H](Cc4ccccc4)C(=O)O)cc3)n2)cc1 . Value?
Output: 0.0082

====

I'd be grateful if you could share measured pIC50 for these entries.
- target.or.test.system: MMP-13 (Homo sapiens)
- Construct: catalytic domain (^104Tyr˜^267Gly) was amplified with RT-PCR; His-tag; enterokinase digestion-site; made in house
- experimental.details: Assay for inhibitory activities on MMP-13
- Format: biochemical
- measurement.setup: catalytic domain, substrate MOCAc-Pro-Leu-Gly-Leu-A2Pr(DNP)-Ala-Arg-NH2; read-out: MMP-13 (IC50μM)
// pIC50 is dimensionless: -log10 of concentration (M)

Input: Give MMP-13 (Homo sapiens) pIC50 for CCC(C)[C@H](NS(=O)(=O)c1ccc(-c2ncc(-c3ccc(OC)cc3)s2)cc1)C(=O)O (stereo partly shown)
Output: 8.89

Input: Give MMP-13 (Homo sapiens) pIC50 for CCSc1ccc(-c2ccc(S(=O)(=O)NC(C)C(=O)O)cc2)cc1 (stereo not shown)
Output: 7.87

Input: Form field: pIC50 recorded for O=C(O)[C@@H](Cc1ccc(-c2ccccc2)cc1)NS(=O)(=O)c1ccc(-c2ccccc2)cc1 with MMP-13 (Homo sapiens) (enter value)
Output: 5.97

Input: Identify the measured pIC50 of CNc1ccc(-c2ccc(S(=O)(=O)NC(C(=O)O)C(C)C)s2)cc1 (stereo not shown) for MMP-13 (Homo sapiens).
Output: 5.90

Input: Form field: pIC50 recorded for O=C(O)CCCNS(=O)(=O)c1ccc(-c2ccc(N3CCCC3)cc2)s1 with MMP-13 (Homo sapiens) (enter value)
Output: 5.50

Input: Look up pIC50 with MMP-13 (Homo sapiens) for this compound: CCSc1ccc(-c2ccc(S(=O)(=O)NC(C(=O)O)C(C)C)cc2)cc1 (stereo not shown)
Output: 7.71

Input: Entry CNc1ccc(-c2ccc(S(=O)(=O)N[C@H](Cc3ccccc3)C(=O)O)s2)cc1 , system MMP-13 (Homo sapiens): what pIC50 was measured?
Output: 7.50

Input: What value of pIC50 on MMP-13 (Homo sapiens) does CCc1ccc(-c2ccc(S(=O)(=O)NC(C(=O)O)C(C)C)cc2)cc1 (stereo not shown) have?
Output: 7.69

Input: # value lookup — system MMP-13 (Homo sapiens), readout pIC50, item CSc1ccc(-c2ccc(S(=O)(=O)NC(Cc3ccccc3)C(=O)O)cc2)cc1 (stereo not shown) [Compound E-6]
Output: 8.59

Input: # value lookup — system MMP-13 (Homo sapiens), readout pIC50, item CN(C)c1ccc(-c2ccc(S(=O)(=O)N[C@H](Cc3c[nH]c4ccccc34)C(=O)O)s2)cc1
Output: 9.33

Input: What measured pIC50 is associated with O=C(O)[C@@H](Cc1ccccc1)NS(=O)(=O)c1ccc(C#CC2=CCCCC2)s1 on MMP-13 (Homo sapiens)?
Output: 6.82

Input: Could you share what pIC50 was measured for CC(C)[C@@H](NS(=O)(=O)c1ccc(-c2ccc(-c3ccc4ccccc4c3)cc2)cc1)C(=O)O , tested on MMP-13 (Homo sapiens)?
Output: 7.86

Input: Provide value of pIC50 for this record tested with MMP-13 (Homo sapiens): CC(C)[C@@H](NS(=O)(=O)c1ccc(-c2ncc(-c3ccc4c(c3)OCO4)s2)cc1)C(=O)O
Output: 8.28

Input: Recorded pIC50 for Cc1ccc(C#Cc2ccc(S(=O)(=O)N[C@H](Cc3c[nH]c4cccc(O)c34)C(=O)O)s2)cc1 with MMP-13 (Homo sapiens), please?
Output: 7.48

Input: Checklist item: pIC50 tested on MMP-13 (Homo sapiens), entry CSc1ccc(-c2ccc(S(=O)(=O)NC(C(=O)O)c3cccs3)cc2)cc1 (stereo not shown) , value?
Output: 7.60

Input: // fetch MMP-13 (Homo sapiens) pIC50 for CC(C)C[C@@H](NS(=O)(=O)c1ccc(-c2ncc(-c3ccc(Cl)c(Cl)c3)s2)cc1)C(=O)O
Output: 7.32

Input: Value wanted: pIC50 (MMP-13 (Homo sapiens)) of entry CCCCc1ccc(-c2noc(-c3ccc(S(=O)(=O)N[C@H](Cc4ccccc4)C(=O)O)cc3)n2)cc1
Output: 7.00

Input: Provide value of pIC50 for this record tested with MMP-13 (Homo sapiens): Cc1ccc(C#Cc2ccc(S(=O)(=O)N[C@H](CCC(=O)O)C(=O)O)s2)cc1
Output: 6.82

Input: Param readout = pIC50; param system = MMP-13 (Homo sapiens); param query = O=C(O)[C@H](NS(=O)(=O)c1ccc(-c2ccc(N3CCCC3)cc2)s1)c1ccc(O)cc1 ; response: value
Output: 8.43

Input: Observed pIC50 on MMP-13 (Homo sapiens) for CSc1ccc(-c2ccc(-c3ccc(S(=O)(=O)N[C@@H](C(=O)O)C(C)C)s3)s2)cc1 , please.
Output: 7.83

Input: Write down the reported pIC50 of O=C(O)c1ccc(C#Cc2ccc(S(=O)(=O)N[C@H](Cc3ccccc3)C(=O)O)s2)cc1 , test system: MMP-13 (Homo sapiens).
Output: 5.22

Input: Field: pIC50 (MMP-13 (Homo sapiens)). Entry: O=C(O)[C@H]1[C@@H]2CC[C@@H](C2)[C@@H]1NS(=O)(=O)c1ccc(-c2ccc(N3CCCC3)cc2)s1
Output: 6.47

Input: Quick check: pIC50 on MMP-13 (Homo sapiens), item CCOc1ccc(-c2ccc(S(=O)(=O)NC(C(=O)O)C(C)C)cc2)cc1 (stereo not shown) ?
Output: 7.91

Input: Please provide the recorded pIC50 for CSc1ccc(-c2ccc(S(=O)(=O)NC(C(=O)O)C(C)C)cc2)s1 (stereo not shown) , tested on MMP-13 (Homo sapiens).
Output: 7.69

Input: Recorded pIC50 for CCc1ccc(-c2nc(-c3ccc(S(=O)(=O)N[C@@H](C(=O)O)C(C)C)cc3)no2)cc1 with MMP-13 (Homo sapiens), please?
Output: 8.00

Input: Form: Entry = CCCCc1ccc(-c2noc(-c3ccc(S(=O)(=O)N[C@@H](C(=O)O)C(C)C)cc3)n2)cc1 | System = MMP-13 (Homo sapiens) | pIC50 = ____
Output: 7.55
